tested on: Micrococcus lysodeikticus 2665 (溶壁微球菌2665); assay: Antibacterial action (MIC, FICI) against Micrococcus lysodeikticus 2665 (Table 4); format: cell-based; settings: component A (XP or YS) alone
MEASURED ATTRIBUTE: log10 of MIC_A (log10 of the value in ng/mL)
The figures below represent log10 of MIC_A, where MIC_A is stated in ng/mL.

CCOC(=O)C1=C[C@@H](OC(CC)CC)[C@H](N)[C@@H](NC(CC(=O)O)C(=O)O)C1 (mixture of isomers) [化合物12P] : 1.48
CCOC(=O)C1=C[C@H](OC(CC)CC)[C@H](N)[C@@H](NC(C)=O)C1 [化合物18S] : 2.62
CCOC(=O)C1=C[C@@H](OC(CC)CC)[C@H](NC(C)=O)[C@@H](N)C1 : 2.48
CCOC(=O)C1=C[C@@H](OC(CC)CC)[C@H](NC(C)=O)[C@@H](NC(CC(=O)O)C(=O)O)C1 (mixture of isomers) : 0.60
CCOC(=O)C1=C[C@@H](OC(CC)CC)[C@H](N)[C@@H](N)C1 [化合物12S] : 3.01
CCOC(=O)C1=C[C@@H](OC(CC)CC)[C@H](NC(C)=O)[C@H](NC(CC(=O)O)C(=O)O)C1 (mixture of isomers) : 1.26

Can you share its log10 of MIC_A? I mean this compound: CCOC(=O)C1=C[C@H](OC(CC)CC)[C@H](NC(C)=O)[C@@H](NC(CC(=O)O)C(=O)O)C1 (mixture of isomers) 1.41

# lookup: log10 of MIC_A of CCOC(=O)C1=C[C@@H](OC(CC)CC)[C@H](N)[C@@H](N=[N+]=[N-])C1 [化合物21S] 2.61

----------
tested on: Clostridium perfringens ATCC13124 (产气荚膜梭状芽孢杆菌ATCC13124); format: cell-based; details: component A (XP or YS) alone
Assign labels as follows, please: Criterion met for MIC_A below 500 ng/mL; Criterion not met for MIC_A equal to or exceeding 500 ng/mL.

Some solved cases for reference:
CCC(CC)O[C@@H]1C=C(C(=O)O)C[C@H](NC(CC(=O)O)C(=O)O)[C@H]1N (mixture of isomers) [化合物11P] : Criterion met
CC(=O)N[C@H]1[C@H](O)C=C(C(=O)O)C[C@@H]1NC(CC(=O)O)C(=O)O (mixture of isomers) [化合物15P] : Criterion met
CCOC(=O)C1=C[C@H](OC(CC)CC)[C@@H](N)[C@H](NC(CC(=O)O)C(=O)O)C1 (mixture of isomers) [化合物17P] : Criterion met
CCOC(=O)C1=C[C@H](OC(CC)CC)[C@@H](N)[C@H](N)C1 [化合物17S] : Criterion not met
CC(=O)N[C@H]1[C@H](O)C=C(C(=O)O)C[C@@H]1N [化合物15S, (3R,4R,5S)-4-乙酰氨基-5-氨基-3-羟基环己-1-烯-1-羧酸] : Criterion not met
CCC(CC)O[C@@H]1C=C(C(=O)O)C[C@H](N)[C@H]1N [化合物11S] : Criterion met
CCOC(=O)C1=C[C@@H](OC(CC)CC)[C@H](NC(C)=O)[C@@H](N)C1 [化合物4S] : Criterion not met
CCOC(=O)C1=C[C@@H](OC(CC)CC)[C@@H](NC(C)=O)[C@@H](NC(CC(=O)O)C(=O)O)C1 (mixture of isomers) [化合物8P] : Criterion met

Here's an entry: CCOC(=O)C1=C[C@@H](OC(CC)CC)[C@@H](NC(C)=O)[C@@H](N)C1 [化合物8S] . Is its MIC_A below 500 ng/mL? Criterion met

Please determine if CCOC(=O)C1=C[C@@H](OC(CC)CC)[C@H](N)[C@@H](N=[N+]=[N-])C1 [化合物21S] is below 500 ng/mL in terms of MIC_A. Criterion not met
